Molecular target: Pygo2 PHD finger (PHD–HD1 complex) (Homo sapiens)
Sequence (Q9BRQ0 327-387): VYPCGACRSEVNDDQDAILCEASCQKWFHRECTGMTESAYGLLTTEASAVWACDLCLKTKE
Sequence (Q86UU0 235-263 partner): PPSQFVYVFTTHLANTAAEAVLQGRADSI
Experiment: biochemical
Parameters: PHD–HD1 complex; with B9L HD1 (BCL9L); 15N-HSQC NMR titration of 15N-labelled PHD-HD1; Kd from chemical shift perturbations
From the text: […]. […] Nevertheless, we asked whether CF16 could compete with a native histone H3 tail peptide for binding to the PHD–HD1 complex.
quantity kind: Kd (µM)

1) Nc1nc2cc3c(cc2s1)OCCO3    2900

Hello, the source for this data is paper PMC4330097, in case you need it.
